system: 885724-159-R-J1-PDC KRAS PDC multicell spheroid viability; experiment: Anticancer human tumor 885724-159-R-J1-PDC patient-derived pancreatic adenocarcinoma cell line growth inhibition [KRAS2]; details: second compound 10 µM; first compound 1 µM; active = viability on the fitted dose curve at most 10% of control; inactive = the rest;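 note: spheroids exposed to agents for 7 days before readout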
# valid calls are active, inactive; nothing else

COc1cc2nccc(Oc3ccc(NC(=O)C4(C(=O)Nc5ccc(F)cc5)CC4)cc3)c2cc1OC + CC1OCC2(CCN(c3cnc(Sc4ccnc(N)c4Cl)c(N)n3)CC2)C1N; inactive

Data request: Hey, what did the test say about CC1COCCN1c1cc(-c2ccnn2C)c2ccnc(-c3ccn[nH]3)c2n1 (centres undefined) + CNCc1ccccc1-c1csc(C(C)Nc2nc(C)nc3cc(OC)c(OC)cc23)c1 ?
Data returned: active

Data request: Each molecule tested received a call. Report the one for O=C(c1cc(Cc2n[nH]c(=O)c3ccccc23)ccc1F)N1CCN(C(=O)C2CC2)CC1 + CC1OCC2(CCN(c3cnc(Sc4ccnc(N)c4Cl)c(N)n3)CC2)C1N .
Data returned: inactive

Data request: Hi, sorry to bother you, what did the test record for CCN1CCN(Cc2ccc(Nc3ncc(F)c(-c4cc(F)c5nc(C)n(C(C)C)c5c4)n3)nc2)CC1 + CC1OCC2(CCN(c3cnc(Sc4ccnc(N)c4Cl)c(N)n3)CC2)C1N ?
Data returned: inactive

Data request: Per the records of this test, what outcome belongs to CC1(C)CCC(CN2CCN(c3ccc(C(=O)NS(=O)(=O)c4ccc(NCC5CCOCC5)c([N+](=O)[O-])c4)c(Oc4cnc5[nH]ccc5c4)c3)CC2)=C(c2ccc(Cl)cc2)C1 + CC1OCC2(CCN(c3cnc(Sc4ccnc(N)c4Cl)c(N)n3)CC2)C1N ?
Data returned: inactive

Data request: For COc1cc2nccc(Oc3ccc(NC(=O)C4(C(=O)Nc5ccc(F)cc5)CC4)cc3)c2cc1OC + COc1cc2nc(C)nc(NC(C)c3cc(N)cc(C(F)(F)F)c3)c2cc1OC1CCOC1 , which call appears in the assay record?
Data returned: inactive

Data request: Can you look up the reported call for CCN1CCN(Cc2ccc(Nc3ncc(F)c(-c4cc(F)c5nc(C)n(C(C)C)c5c4)n3)nc2)CC1 + C=CC(=O)N1CCN(c2nc(=O)n(-c3c(C)ccnc3C(C)C)c3nc(-c4c(O)cccc4F)c(F)cc23)C(C)C1 for me?
Data returned: inactive

Data request: Recorded test call requested for CC1COCCN1c1cc(-c2ccnn2C)c2ccnc(-c3ccn[nH]3)c2n1 (centres undefined) + CC1OCC2(CCN(c3cnc(Sc4ccnc(N)c4Cl)c(N)n3)CC2)C1N
Data returned: inactive

Data request: Outcome? CCNC(=O)CC1N=C(c2ccc(Cl)cc2)c2cc(OC)ccc2-n2c(C)nnc21 (centres undefined) + CNCc1ccccc1-c1csc(C(C)Nc2nc(C)nc3cc(OC)c(OC)cc23)c1
Data returned: active

Data request: For O=C(c1cc(Cc2n[nH]c(=O)c3ccccc23)ccc1F)N1CCN(C(=O)C2CC2)CC1 + CNCc1ccccc1-c1csc(C(C)Nc2nc(C)nc3cc(OC)c(OC)cc23)c1 , what call appears in the results of this test?
Data returned: active

Data request: Tell me the assay call for CCN1CCN(Cc2ccc(Nc3ncc(F)c(-c4cc(F)c5nc(C)n(C(C)C)c5c4)n3)nc2)CC1 + COc1cc2nc(C)nc(NC(C)c3cc(N)cc(C(F)(F)F)c3)c2cc1OC1CCOC1 please.
Data returned: active

Data request: What outcome does the record of this test show for COC(=O)c1ccc2c(C(=Nc3ccc(N(C)C(=O)CN4CCN(C)CC4)cc3)c3ccccc3)c(O)[nH]c2c1 + CC1OCC2(CCN(c3cnc(Sc4ccnc(N)c4Cl)c(N)n3)CC2)C1N ?
Data returned: inactive

Data request: Name the outcome recorded for CC(=O)OC12COC1CC(O)C1(C)C(=O)C(O)C3=C(C)C(OC(=O)C(O)C(NC(=O)OC(C)(C)C)c4ccccc4)CC(O)(C(OC(=O)c4ccccc4)C21)C3(C)C (centres undefined) + CNCc1ccccc1-c1csc(C(C)Nc2nc(C)nc3cc(OC)c(OC)cc23)c1 in the assay.
Data returned: active

Data request: How did this test come out for COc1cc(Nc2ncc3c(n2)-c2ccc(Cl)cc2C(c2c(F)cccc2OC)=NC3)ccc1C(=O)O + COc1cc2nc(C)nc(NC(C)c3cc(N)cc(C(F)(F)F)c3)c2cc1OC1CCOC1 ?
Data returned: inactive
